The origin of these recorded values is ChEMBL document CHEMBL5385857.

Assay Summary: Cytotoxicity against MDCK cells
Assay type: toxicity, cell-based, Canis lupus familiaris
Measurement Context: dog
// CC50 lookup, one value per entry

Molecule	Measured Value
CCCCn1nnc([C@@H](c2ccc(F)cc2)N2CCN(C(=O)c3cc(-c4nc5cc(NC(C)=O)ccc5o4)ccn3)CC2)n1	> 100 µM
CC(=O)Nc1ccc2oc(-c3ccnc(C(=O)N4CCN(C(c5ccc(F)cc5)c5nnn(C6CC6)n5)CC4)c3)nc2c1 (configuration not stated)	> 50 µM
CCC(CC)C(=O)Nc1ccc2oc(-c3ccnc(C(=O)N4CCN(C(c5ccc(F)cc5)c5nnn(C)n5)CC4)c3)nc2c1 (configuration not stated)	28.6 µM
CC(=O)Nc1ccc2oc(-c3ccnc(C(=O)N4CCN([C@H](c5ccc(F)cc5)c5nnn(C)n5)CC4)c3)nc2c1	> 100 µM
Cn1nnc(C(c2ccc(F)cc2)N2CCN(C(=O)c3cc(-c4nc5cc(NC(=O)C6CCCC6)ccc5o4)ccn3)CC2)n1 (configuration not stated)	5.14 µM

Which CC50 is listed for CCC(CC)n1nnc([C@H](c2ccc(F)cc2)N2CCN(C(=O)c3cc(-c4nc5cc(NC(C)=O)ccc5o4)ccn3)CC2)n1 ?
> 100 µM

Input CC(=O)Nc1ccc2oc(-c3ccnc(C(=O)N4CCN(C(c5ccc(F)cc5)c5nnn(CCC(C)C)n5)CC4)c3)nc2c1 (configuration not stated)
> 50 µM

* * *

# Cmax values compiled below
Assay Summary: Cmax in Balb/c mouse at 25 mg/kg, po administered as single dose
Assay type: ADME, organism-based
Design: dose 25 mg/kg, route po
Measurement Context: in vivo
I only need the number, in ng/mL, no unit after it.

GET /values?readout=Cmax&item= C=Cn1nnc([C@@H](c2ccc(F)cc2)N2CCN(C(=O)c3cc(-c4nc5cc(NC(C)=O)ccc5o4)ccn3)CC2)n1
2130

Another: CC(=O)Nc1ccc2oc(-c3ccnc(C(=O)N4CCN([C@H](c5ccc(F)cc5)c5nnn(C(C)C)n5)CC4)c3)nc2c1
3770

Follow-up entry: CC(=O)Nc1ccc2oc(-c3ccnc(C(=O)N4CCN([C@H](c5ccc(F)cc5)c5nnn(C6CCCC6)n5)CC4)c3)nc2c1
992

* * *

Assay Summary: Cytotoxicity against MDCK cells
Format: toxicity, cell-based, Canis lupus familiaris
Measurement Context: dog
Quick reference: CC50 of the listed items.
Use µM as the unit, but write only the number.

Compound	Measured Value
Cn1nnc(C(c2ccc(F)cc2)N2CCN(C(=O)c3cc(-c4nc5cc(NC(=O)C(C)(C)C)ccc5o4)ccn3)CC2)n1 (centres undefined)	12.8

Next up:
Could you tell me which CC50 is on file for CC(=O)Nc1ccc2oc(-c3ccnc(C(=O)N4CCN([C@H](c5ccc(F)cc5)c5nnn(C6CCCC6)n5)CC4)c3)nc2c1 ?
87.2

* * *

Measured On: hERG (KCNH2) (Homo sapiens, UniProt Q12809)
Sequence (Q12809 whole entry): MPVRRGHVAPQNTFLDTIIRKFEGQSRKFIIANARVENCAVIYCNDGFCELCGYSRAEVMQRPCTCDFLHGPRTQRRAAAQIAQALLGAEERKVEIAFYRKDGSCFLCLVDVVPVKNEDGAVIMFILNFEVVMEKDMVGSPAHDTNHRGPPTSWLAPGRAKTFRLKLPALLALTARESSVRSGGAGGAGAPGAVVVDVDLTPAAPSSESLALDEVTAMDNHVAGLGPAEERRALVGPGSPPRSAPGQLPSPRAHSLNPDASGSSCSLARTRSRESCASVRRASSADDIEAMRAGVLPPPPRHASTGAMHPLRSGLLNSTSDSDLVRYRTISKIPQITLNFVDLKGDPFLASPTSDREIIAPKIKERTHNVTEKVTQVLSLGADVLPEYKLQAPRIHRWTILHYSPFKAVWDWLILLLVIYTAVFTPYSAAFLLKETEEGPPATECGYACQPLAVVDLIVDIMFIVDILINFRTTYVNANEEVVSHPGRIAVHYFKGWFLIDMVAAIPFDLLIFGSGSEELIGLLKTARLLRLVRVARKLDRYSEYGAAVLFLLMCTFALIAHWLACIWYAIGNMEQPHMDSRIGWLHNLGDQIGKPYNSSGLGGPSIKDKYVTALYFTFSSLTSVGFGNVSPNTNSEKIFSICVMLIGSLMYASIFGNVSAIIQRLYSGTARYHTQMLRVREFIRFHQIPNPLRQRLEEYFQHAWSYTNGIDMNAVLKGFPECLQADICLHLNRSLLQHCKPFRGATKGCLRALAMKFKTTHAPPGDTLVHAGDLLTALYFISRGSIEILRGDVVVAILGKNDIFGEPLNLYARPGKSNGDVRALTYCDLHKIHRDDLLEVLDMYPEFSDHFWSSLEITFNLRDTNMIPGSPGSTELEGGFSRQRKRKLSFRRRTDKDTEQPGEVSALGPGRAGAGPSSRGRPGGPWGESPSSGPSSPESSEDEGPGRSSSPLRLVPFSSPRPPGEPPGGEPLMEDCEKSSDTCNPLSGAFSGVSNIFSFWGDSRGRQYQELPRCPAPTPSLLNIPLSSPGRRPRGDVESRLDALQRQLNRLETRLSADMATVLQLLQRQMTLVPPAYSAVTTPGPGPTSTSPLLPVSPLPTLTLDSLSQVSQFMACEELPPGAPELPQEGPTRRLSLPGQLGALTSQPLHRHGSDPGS
Assay Summary: Inhibition of hERG at 10 uM relative to control
Format: toxicity
Property Name: inhibition at 10 µM

C=Cn1nnc([C@@H](c2ccc(F)cc2)N2CCN(C(=O)c3cc(-c4nc5cc(NC(C)=O)ccc5o4)ccn3)CC2)n1 36.4%

Consider now this further compound.
Request the reported inhibition at 10 µM associated with CC(=O)Nc1ccc2oc(-c3ccnc(C(=O)N4CCN([C@H](c5ccc(F)cc5)c5nnn(C(C)C)n5)CC4)c3)nc2c1
27.1%

* * *

Assay Summary: Cytotoxicity against MDCK cells
Type: toxicity, cell-based, Canis lupus familiaris
Measurement Context: dog
Property Name: CC50

Molecule	CC50
CC(=O)Nc1ccc2sc(-c3ccnc(C(=O)N4CCN(C(c5ccccc5)c5nnn(C(C)C)n5)CC4)c3)nc2c1 (stereo not given)	> 50 µM
CC(=O)Nc1ccc2oc(-c3ccnc(C(=O)N4CCN(C(c5ccc(F)cc5)c5nnn(CCC6CCCCC6)n5)CC4)c3)nc2c1 (stereo not given)	> 50 µM
CCCn1nnc(C(c2ccc(F)cc2)N2CCN(C(=O)c3cc(-c4nc5cc(NC(C)=O)ccc5o4)ccn3)CC2)n1 (stereo not given)	> 50 µM
CC(=O)Nc1ccc2oc(-c3ccnc(C(=O)N4CCN(C(c5ccccc5)c5nnnn5C(C)C)CC4)c3)nc2c1 (stereo not given)	> 50 µM
CC(=O)Nc1ccc2oc(-c3ccnc(C(=O)N4CCN([C@@H](c5ccc(F)cc5)c5nnn(C6CCCC6)n5)CC4)c3)nc2c1	96.2 µM

Requested read-out: CC50. Entry: CCCC(=O)Nc1ccc2oc(-c3ccnc(C(=O)N4CCN(C(c5ccc(F)cc5)c5nnn(C)n5)CC4)c3)nc2c1 (stereo not given)
> 50 µM

Okay, and CC(=O)Nc1ccc2oc(-c3ccnc(C(=O)N4CCN(C(c5ccc(F)cc5)c5nnn(C6CCOCC6)n5)CC4)c3)nc2c1 (stereo not given) ?
> 50 µM

Can you check CC(=O)Nc1ccc2oc(-c3ccnc(C(=O)N4CCN([C@@H](c5ccccc5)c5nnn(C(C)C)n5)CC4)c3)nc2c1 next?
> 100 µM

Follow-up item: CC(=O)Nc1ccc2oc(-c3ccnc(C(=O)N4CCN([C@@H](c5ccc(F)cc5)c5nnn(C(C)C)n5)CC4)c3)nc2c1
> 100 µM

Then what about the molecule CCn1nnc(C(c2ccc(F)cc2)N2CCN(C(=O)c3cc(-c4nc5cc(NC(C)=O)ccc5o4)ccn3)CC2)n1 (stereo not given) ?
> 50 µM

Check CC(=O)Nc1ccc2oc(-c3ccnc(C(=O)N4CCN([C@H](c5ccc(F)cc5)c5nnn(CCC(C)C)n5)CC4)c3)nc2c1 too.
> 100 µM

Can you check CC(=O)Nc1ccc2oc(-c3ccnc(C(=O)N4CCN(C(c5ccc(F)cc5)c5nnn(C(C)C)n5)CC4)c3)nc2c1 (stereo not given) next?
> 50 µM

Consider next the molecule C=Cn1nnc([C@@H](c2ccc(F)cc2)N2CCN(C(=O)c3cc(-c4nc5cc(NC(C)=O)ccc5o4)ccn3)CC2)n1 in the same way.
> 100 µM

Now give it for COCCn1nnc(C(c2ccc(F)cc2)N2CCN(C(=O)c3cc(-c4nc5cc(NC(C)=O)ccc5o4)ccn3)CC2)n1 (stereo not given) too.
> 50 µM

Cool, now CC(=O)Nc1ccc2oc(-c3ccnc(C(=O)N4CCN(C(c5ccccc5)c5nnn(C(C)C)n5)CC4)c3)nc2c1 (stereo not given)
> 50 µM

* * *

Assay Summary: Selectivity index, ratio of CC50 for MDCK cells to IC50 for influenza A virus infected in MDCK cells
Format: toxicity, cell-based
Measurement Context: dog, read-out: Ratio CC50/IC50
Property Name: selectivity ratio

CC(=O)Nc1ccc2oc(-c3ccnc(C(=O)N4CCN([C@H](c5ccccc5)c5nnn(C(C)C)n5)CC4)c3)nc2c1 > 1000

selectivity ratio for CC(=O)Nc1ccc2oc(-c3ccnc(C(=O)N4CCN([C@H](c5ccc(F)cc5)c5nnn(CCC(C)C)n5)CC4)c3)nc2c1 ?
> 384

Another molecule to check: CC(=O)Nc1ccc2oc(-c3ccnc(C(=O)N4CCN([C@@H](c5ccccc5)c5nnn(C(C)C)n5)CC4)c3)nc2c1
> 120

Subsequent entry: C=Cn1nnc([C@@H](c2ccc(F)cc2)N2CCN(C(=O)c3cc(-c4nc5cc(NC(C)=O)ccc5o4)ccn3)CC2)n1
> 3330

Entry CC(=O)Nc1ccc2oc(-c3ccnc(C(=O)N4CCN([C@H](c5ccc(F)cc5)c5nnn(C(C)C)n5)CC4)c3)nc2c1 please
> 3330

Item: CCC(CC)n1nnc([C@H](c2ccc(F)cc2)N2CCN(C(=O)c3cc(-c4nc5cc(NC(C)=O)ccc5o4)ccn3)CC2)n1
> 250

Would you kindly repeat that for CC(=O)Nc1ccc2oc(-c3ccnc(C(=O)N4CCN([C@@H](c5ccc(F)cc5)c5nnn(C6CCCC6)n5)CC4)c3)nc2c1 ?
188

* * *

Assay Summary: AUC (0 to infinity) in Balb/c mouse at 25 mg/kg, po administered as single dose
Type: ADME, organism-based
Set-up: dose 25 mg/kg, route po
Measurement Context: in vivo
Property Name: AUC(0-inf) (ng·h/mL)
Numeric answer only, unit ng·h/mL assumed.

Worked set:
CC(=O)Nc1ccc2oc(-c3ccnc(C(=O)N4CCN([C@H](c5ccc(F)cc5)c5nnn(C6CCCC6)n5)CC4)c3)nc2c1 692
CC(=O)Nc1ccc2oc(-c3ccnc(C(=O)N4CCN([C@H](c5ccc(F)cc5)c5nnn(C(C)C)n5)CC4)c3)nc2c1 2980

# evaluate next
# input compound: C=Cn1nnc([C@@H](c2ccc(F)cc2)N2CCN(C(=O)c3cc(-c4nc5cc(NC(C)=O)ccc5o4)ccn3)CC2)n1 ; wanted: its AUC(0-inf)
2100

* * *

Tmax values, listed per item
Assay Summary: Tmax in Balb/c mouse at 25 mg/kg, po administered as single dose
Assay type: ADME, organism-based
Measurement Context: in vivo
Report as a plain number; the unit min is understood.

Examples with their reported Tmax follow.
CC(=O)Nc1ccc2oc(-c3ccnc(C(=O)N4CCN([C@H](c5ccc(F)cc5)c5nnn(C(C)C)n5)CC4)c3)nc2c1 15
CC(=O)Nc1ccc2oc(-c3ccnc(C(=O)N4CCN([C@H](c5ccc(F)cc5)c5nnn(C6CCCC6)n5)CC4)c3)nc2c1 15

Note: attention shifts to another entry.
Which Tmax is reported for this compound? C=Cn1nnc([C@@H](c2ccc(F)cc2)N2CCN(C(=O)c3cc(-c4nc5cc(NC(C)=O)ccc5o4)ccn3)CC2)n1
15
